assaySystem: Serine/threonine-protein kinase Nek6 (Homo sapiens);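 further: values are the mean percent inhibition of NEK6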
experimentalContext: at 0.1 µM
assayReadout: inhibition

1) CCN(CC)S(=O)(=O)c1ccc(OC)c(Nc2ncc(-c3ccccc3)o2)c1 | 1.9%

Problem: Record CCn1c(-c2nonc2N)nc2ccccc21 : what is its inhibition with Serine/threonine-protein kinase Nek6 (Homo sapiens)?
Result: 5.78%

Problem: Request: CNC(=O)c1cccc(C#Cc2cncnc2Nc2ccc(OCc3cccc(F)c3)c(Cl)c2)c1
Result: 1.08%

Problem: Request: COc1cc2c(cc1Nc1nc(Nc3ccsc3C(N)=O)c3cc[nH]c3n1)N(C(=O)CN(C)C)CCC2(C)C
Result: 2.59%

Problem: Request: O=S(=O)(CCNCc1ccc(-c2ccc3ncnc(Nc4ccc(OCc5cccc(F)c5)c(Cl)c4)c3c2)o1)c1ccccc1
Result: 4.21%

Problem: Request: c1cc(-c2cnn3nc(N4CCOCC4)ccc23)nc(NC2CC2)n1
Result: 0.95%

Problem: Request: COc1cccc(-n2ncc3c(N/N=C/c4ccc(F)cc4)ncnc32)c1
Result: 2.71%

Problem: Request: CNC(=O)c1cc(-c2ccc(F)cc2)cc(-c2ccc(S(=O)(=O)N3CCCC3)cc2)c1N
Result: 3.41%

Problem: Request: Fc1ccc(-c2nn3ncccc3c2-c2ccnc(Nc3ccc4c(c3)OCCO4)n2)cc1
Result: 0.64%

Problem: Request: CCn1c(-c2nonc2N)nc2c(C#CC(C)(C)O)nc(OC[C@H](N)c3ccccc3)cc21
Result: -0.95%

Problem: Request: COc1ccc2[nH]c3c4[nH]c5ccc(OC)cc5c4c4c(c3c2c1)C(=O)NC4=O
Result: 5.36%

Problem: Request: COc1cccc(-c2c[nH]c3c(N/N=C/c4ccncc4)ncnc23)c1
Result: 3.57%

Problem: Request: Cc1ccc2c(-c3ccnc(Nc4ccccc4)n3)c(-c3ccc(F)cc3)nn2n1
Result: 4.02%

Problem: Request: Clc1ccc(-c2nn3ncccc3c2-c2ccnc(Nc3ccccc3)n2)cc1
Result: 2.55%

* * *

This listing pairs compounds with measured inhibition.
assaySystem: Tyrosine-protein kinase Fyn (Homo sapiens)
experimentalContext: at 1 µM
Description: GSK_PKIS: FYN mean inhibition at 1 uM [Nanosyn]

Previously resolved entries follow.
1) Clc1ccc(-c2nn3ncccc3c2-c2ccnc(Nc3ccccc3)n2)cc1 | 43.5%
2) CN1CCC(n2cnc(-c3ccc(F)cc3)c2-c2ccnc(N)n2)CC1 | 7.42%
3) Nc1ncc(-c2cccc(S(N)(=O)=O)c2)c2scc(-c3ccc(F)c(Cl)c3)c12 | 32.6%
4) Nc1nc(-c2ccc(F)cc2)c(-c2ccc3ncccc3n2)s1 | 12.4%
5) CC(=O)NCc1cccc(C#Cc2cncnc2Nc2ccc(OCc3cccc(F)c3)c(Cl)c2)c1 | 3.27%
6) Fc1ccc(-c2nn3ncccc3c2-c2ccnc(Nc3ccc4c(c3)OCCO4)n2)cc1 | 88%
7) COC(=O)c1sc(-n2cnc3cc(OC)c(OC)cc32)cc1OCc1ccccc1C(F)(F)F | 56.3%
8) N#Cc1c(NC(=O)c2ccc(F)cc2)sc2c1CCCC2 | 3.42%

Problem: Could you share which inhibition value was measured for CCNC(=O)O[C@H]1CN[C@H](C#Cc2cc3ncnc(Nc4ccc(OCc5cccc(F)c5)c(Cl)c4)c3s2)C1 ?
Result: 1.8%

* * *

assaySystem: High affinity nerve growth factor receptor (Homo sapiens);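 further: each value is the mean percent inhibition of TRKA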
experimentalContext: at 1 µM
assayReadout: inhibition
Put down the number, then write its unit next to it.

1) CS(=O)(=O)CCNCc1ccc(-c2ccc3ncnc(Nc4ccc(OCc5ccccc5)c(C(F)(F)F)c4)c3c2)o1 | -0.59%

Problem: Could you share which inhibition value was measured for COc1cccc(-c2c[nH]c3c(N/N=C/c4ccncc4)ncnc23)c1 ?
Result: 7.45%

Problem: Request: COc1cccc(-n2ncc3c(N/N=C/c4ccc(F)cc4)ncnc32)c1
Result: 4.65%

* * *

assaySystem: Tyrosine-protein kinase JAK3 (Homo sapiens);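 further: values reported are mean percent inhibition of JAK3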
experimentalContext: at 0.1 µM
assayReadout: inhibition (%)
The answer is to be given in %; state only the numeric part.

1. Cc1ccc2c(-c3ccnc(Nc4ccccc4)n3)c(-c3ccc(F)cc3)nn2n1 | -0.48

Problem: Record COc1ccc(-c2oc3ncnc(N)c3c2-c2ccc(NC(=O)Nc3cc(C(F)(F)F)ccc3F)cc2)cc1 : what is its inhibition with Tyrosine-protein kinase JAK3 (Homo sapiens)?
Result: 1.04

Problem: Request: c1cc(-c2cnn3nc(N4CCOCC4)ccc23)nc(NC2CC2)n1
Result: -1.14

Problem: Request: CNC(=O)c1cc(-c2ccc(F)cc2)cc(-c2ccc(S(=O)(=O)N3CCCC3)cc2)c1N
Result: -1.74

Problem: Request: COC(=O)c1sc(-n2cnc3cc(OC)c(OC)cc32)cc1OCc1ccccc1C(F)(F)F
Result: 0.11

Problem: Request: Nc1ncc(-c2cccc(S(N)(=O)=O)c2)c2scc(-c3ccc(F)c(Cl)c3)c12
Result: -2.63

Problem: Request: NS(=O)(=O)c1ccc(Nc2ncc(-c3ccccc3)o2)cc1
Result: -0.66

Problem: Request: COc1cc(Nc2nccc(Nc3ccc4c(C)n[nH]c4c3)n2)cc(OC)c1OC
Result: 1.48

Problem: Request: Fc1ccc(-c2cc(-c3c[nH]nc3-c3ccccn3)ccn2)cc1
Result: -0.89

Problem: Request: FC(F)(F)c1cccc(-c2nn3ncccc3c2-c2ccnc(Nc3ccc4c(c3)OCCO4)n2)c1
Result: -0.61

* * *

assaySystem: Tyrosine-protein kinase BTK (Homo sapiens);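 further: values are mean percent inhibition of BTK across replicate measurements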
experimentalContext: at 1 µM
assayReadout: inhibition (%)
The answer is to be given in %; state only the numeric part.

Previously resolved entries follow.
1) CNC(=O)c1cc(-c2ccc(F)cc2)cc(-c2ccc(S(=O)(=O)N3CCCC3)cc2)c1N | -0.59
2) Cc1cccc(Nc2ncc(-c3ccccc3)o2)c1 | 1.31
3) CCCN1CCC(c2ccc(Nc3nc(Nc4cc(F)ccc4C(N)=O)c4cc[nH]c4n3)c(OC)c2)CC1 | -1.71
4) Fc1ccc(-c2nn3ncccc3c2-c2ccnc(Nc3ccc4c(c3)OCCO4)n2)cc1 | 5.26
5) COc1ccc2[nH]c3c4[nH]c5ccc(OC)cc5c4c4c(c3c2c1)C(=O)NC4=O | 8.32

Problem: Could you share which inhibition value was measured for COC(=O)Nc1nc2ccc(S(=O)(=O)c3ccc(NC(=O)Nc4cc(C(F)(F)F)ccc4F)cc3)cc2[nH]1 ?
Result: 0.94

Problem: Request: Clc1ccc(-c2nn3ncccc3c2-c2ccnc(Nc3ccccc3)n2)cc1
Result: 2.63

Problem: Request: COc1cc(Nc2nccc(Nc3ccc4c(C)n[nH]c4c3)n2)cc(OC)c1OC
Result: 34.9

Problem: Request: Fc1ccc(-c2cc(-c3c[nH]nc3-c3ccccn3)ccn2)cc1
Result: -1.93

Problem: Request: COc1cc2ncn(-c3cc(OCc4ccccc4C(F)(F)F)c(C(=O)N(C)C)s3)c2cc1OC
Result: -0.85

Problem: Request: CCNC(=O)O[C@H]1CN[C@H](C#Cc2cc3ncnc(Nc4ccc(OCc5cccc(F)c5)c(Cl)c4)c3s2)C1
Result: 1.29

Problem: Request: CS(=O)(=O)CCNCc1ccc(-c2ccc3ncnc(Nc4ccc(OCc5ccccc5)c(C(F)(F)F)c4)c3c2)o1
Result: 1.16

Problem: Request: NS(=O)(=O)c1ccc(N/N=C2\C(=O)Nc3ccc4ncccc4c32)cc1
Result: 13

* * *

assaySystem: Non-receptor tyrosine-protein kinase TNK1 (Homo sapiens) (UniProt Q13470);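 further: reported values are mean inhibition figures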
Sequence (Q13470 whole entry): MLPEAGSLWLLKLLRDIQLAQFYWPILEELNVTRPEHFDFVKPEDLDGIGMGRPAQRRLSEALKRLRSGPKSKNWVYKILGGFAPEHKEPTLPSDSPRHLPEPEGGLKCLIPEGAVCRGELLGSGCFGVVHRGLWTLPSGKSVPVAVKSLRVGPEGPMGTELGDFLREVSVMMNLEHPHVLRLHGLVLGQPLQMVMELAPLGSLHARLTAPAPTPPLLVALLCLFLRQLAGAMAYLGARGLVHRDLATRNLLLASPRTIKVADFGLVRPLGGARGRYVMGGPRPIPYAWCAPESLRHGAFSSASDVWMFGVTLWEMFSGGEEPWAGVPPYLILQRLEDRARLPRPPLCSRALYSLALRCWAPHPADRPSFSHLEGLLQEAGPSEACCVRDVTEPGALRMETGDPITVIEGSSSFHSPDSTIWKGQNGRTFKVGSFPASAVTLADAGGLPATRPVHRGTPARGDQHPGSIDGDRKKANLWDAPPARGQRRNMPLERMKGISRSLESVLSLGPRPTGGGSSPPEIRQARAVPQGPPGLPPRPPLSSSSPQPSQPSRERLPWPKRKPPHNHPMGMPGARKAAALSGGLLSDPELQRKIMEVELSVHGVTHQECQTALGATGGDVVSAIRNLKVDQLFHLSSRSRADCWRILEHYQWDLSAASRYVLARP
experimentalContext: at 0.1 µM
This listing pairs compounds with measured inhibition.
The answer is to be given in %; state only the numeric part.

Previously resolved entries follow.
1. Nc1ncc(-c2cccc(S(N)(=O)=O)c2)c2scc(-c3ccc(F)c(Cl)c3)c12 | 6.81
2. CNC(=O)c1cc(-c2ccc(F)cc2)cc(-c2ccc(S(=O)(=O)N3CCCC3)cc2)c1N | 2.65
3. COc1ccc2[nH]c3c4[nH]c5ccc(OC)cc5c4c4c(c3c2c1)C(=O)NC4=O | 63.6
4. CCCN1CCC(c2ccc(Nc3nc(Nc4cc(F)ccc4C(N)=O)c4cc[nH]c4n3)c(OC)c2)CC1 | 46.4
5. CC1=C(C(=O)Nc2cc(Cl)c3[nH]ncc3c2)C(c2ccc(C(F)(F)F)cc2)CC(=O)N1 (configuration not stated) | 4.45

Problem: Could you share which inhibition value was measured for COc1cc2c(cc1Nc1nc(Nc3ccsc3C(N)=O)c3cc[nH]c3n1)N(C(=O)CN(C)C)CCC2(C)C ?
Result: 60.5

Problem: Request: CCn1c(-c2nonc2N)nc2cnc(Oc3cccc(NC(=O)c4ccc(N(C)C)cc4)c3)cc21
Result: 6.05

Problem: Request: [O-][S+]1CCN(Cc2ccc(-c3ccc4ncnc(Nc5ccc(OCc6cccc(F)c6)c(Cl)c5)c4c3)o2)CC1
Result: 2.94

Problem: Request: COc1ccc(-c2cc(-c3c[nH]nc3-c3ccccn3)ccn2)cc1
Result: 4.34

Problem: Request: CC(=O)Nc1cccc(C#Cc2cncnc2Nc2ccc(OCc3cccc(F)c3)c(Cl)c2)c1
Result: 0.67

Problem: Request: N#Cc1c(NC(=O)c2ccc(F)cc2)sc2c1CCCC2
Result: -1.86

Problem: Request: Fc1ccc(-c2cc(-c3c[nH]nc3-c3ccccn3)ccn2)cc1
Result: 3.71
